- experimental_system: Ima3p (Saccharomyces cerevisiae)
- Sequence (P0CW40 whole entry): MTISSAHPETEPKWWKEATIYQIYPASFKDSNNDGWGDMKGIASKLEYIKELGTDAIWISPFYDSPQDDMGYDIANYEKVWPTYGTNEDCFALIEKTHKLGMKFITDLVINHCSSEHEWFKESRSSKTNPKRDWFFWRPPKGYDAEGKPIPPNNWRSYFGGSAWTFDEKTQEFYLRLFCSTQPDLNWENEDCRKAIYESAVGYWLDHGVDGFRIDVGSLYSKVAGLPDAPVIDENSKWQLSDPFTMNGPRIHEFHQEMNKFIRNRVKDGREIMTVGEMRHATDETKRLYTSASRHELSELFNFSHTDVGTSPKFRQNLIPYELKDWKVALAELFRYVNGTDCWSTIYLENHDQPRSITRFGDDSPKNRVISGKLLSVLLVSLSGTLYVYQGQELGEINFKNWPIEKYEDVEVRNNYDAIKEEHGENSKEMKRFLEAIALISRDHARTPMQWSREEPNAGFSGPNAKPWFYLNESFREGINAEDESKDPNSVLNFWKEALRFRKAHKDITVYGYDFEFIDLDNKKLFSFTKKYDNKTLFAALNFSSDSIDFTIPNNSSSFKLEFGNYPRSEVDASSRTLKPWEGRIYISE
- assay_comment: Substrate specificity of purified isomaltase
- Format: biochemical
- protocol_conditions: 100 mM substrate (pNPG 5 mM), citrate–potassium phosphate buffer, pH 7, 30 °C
reported_endpoint: Specific activities (µmol/min/mg)
Give bare numbers, in µmol/min/mg.

compound | Specific activities, µmol/min/mg
O=[N+]([O-])c1ccc(O[C@@H]2O[C@H](CO)[C@@H](O)[C@H](O)[C@H]2O)cc1 [β-pNPG, 4-Nitrophenyl β-D-glucopyranoside] | 0
OC[C@H]1O[C@@](CO)(O[C@H]2O[C@H](CO)[C@@H](O)[C@H](O)[C@H]2O)[C@@H](O)[C@@H]1O | 10.2

Consider the additional compound presented here.
Inquiry: What Specific activities appears in the records for this compound with Ima3p (Saccharomyces cerevisiae)? OC[C@H]1O[C@H](O[C@@H]2[C@@H](O)[C@H](O)[C@@H](CO)O[C@@H]2O)[C@H](O)[C@@H](O)[C@@H]1O
Reply text: 0

###

- experimental_system: Ima3p (Saccharomyces cerevisiae)
- assay_comment: Substrate specificity of purified isomaltase
- Format: biochemical
- protocol_conditions: 100 mM substrate (pNPG 5 mM), citrate–potassium phosphate buffer, pH 7, 30 °C
reported_endpoint: Specific activities (µmol/min/mg)
Numbers only, in µmol/min/mg.

A selection of reference data follows.
compound | reported_endpoint | reported
OC[C@H]1O[C@H](O[C@@H]2[C@@H](CO)OC(O)(CO)[C@H]2O)[C@H](O)[C@@H](O)[C@@H]1O (some centres unmarked) | Specific activities | 0
O=[N+]([O-])c1ccc(O[C@H]2O[C@H](CO)[C@@H](O)[C@H](O)[C@H]2O)cc1 [α-pNPG, 4-Nitrophenyl α-D-glucopyranoside] | Specific activities | 3.9
COC1OC(CO)C(O)C(O)C1O (stereo not drawn) [α-MG, α-Methylglucopyranoside] | Specific activities | 11
OC[C@H]1O[C@H](O[C@H]2[C@H](O)[C@@H](O)[C@@H](O[C@H]3[C@H](O)[C@@H](O)C(O)O[C@@H]3CO)O[C@@H]2CO)[C@H](O)[C@@H](O)[C@@H]1O (some centres unmarked) | Specific activities | 0
OC[C@H]1O[C@H](OC[C@H]2O[C@H](OC[C@H]3OC(O)[C@H](O)[C@@H](O)[C@@H]3O)[C@H](O)[C@@H](O)[C@@H]2O)[C@H](O)[C@@H](O)[C@@H]1O (some centres unmarked) | Specific activities | 0
O=C(CO)[C@@H](O[C@H]1O[C@H](CO)[C@@H](O)[C@H](O)[C@H]1O)[C@H](O)[C@H](O)CO | Specific activities | 1.8
OC[C@H]1O[C@H](O[C@@H]2COC(O)(CO)[C@@H](O)[C@@H]2O)[C@H](O)[C@@H](O)[C@@H]1O (some centres unmarked) | Specific activities | 0
OC[C@H]1O[C@H](O[C@H]2[C@H](O)[C@@H](O)[C@H](O)O[C@@H]2CO)[C@H](O)[C@@H](O)[C@@H]1O | Specific activities | 0

Can you give me Specific activities for all of these, one by one?
1. OC[C@H]1O[C@H](O[C@H]2O[C@H](CO)[C@@H](O)[C@H](O)[C@H]2O)[C@H](O)[C@@H](O)[C@@H]1O
2. OC[C@H]1O[C@@](CO)(O[C@H]2O[C@H](CO)[C@@H](O)[C@H](O)[C@H]2O)[C@@H](O[C@H]2O[C@H](CO)[C@@H](O)[C@H](O)[C@H]2O)[C@@H]1O
3. OC[C@H]1O[C@H](OC[C@H]2O[C@H](O[C@H]3[C@H](O)[C@@H](O)C(O)O[C@@H]3CO)[C@H](O)[C@@H](O)[C@@H]2O)[C@H](O)[C@@H](O)[C@@H]1O (some centres unmarked)

Reply text:
0
0
0

###

Could you please report measured Km for the items listed next?
- experimental_system: Ima1p (Saccharomyces cerevisiae, UniProt P53051)
- Sequence (P53051 whole entry): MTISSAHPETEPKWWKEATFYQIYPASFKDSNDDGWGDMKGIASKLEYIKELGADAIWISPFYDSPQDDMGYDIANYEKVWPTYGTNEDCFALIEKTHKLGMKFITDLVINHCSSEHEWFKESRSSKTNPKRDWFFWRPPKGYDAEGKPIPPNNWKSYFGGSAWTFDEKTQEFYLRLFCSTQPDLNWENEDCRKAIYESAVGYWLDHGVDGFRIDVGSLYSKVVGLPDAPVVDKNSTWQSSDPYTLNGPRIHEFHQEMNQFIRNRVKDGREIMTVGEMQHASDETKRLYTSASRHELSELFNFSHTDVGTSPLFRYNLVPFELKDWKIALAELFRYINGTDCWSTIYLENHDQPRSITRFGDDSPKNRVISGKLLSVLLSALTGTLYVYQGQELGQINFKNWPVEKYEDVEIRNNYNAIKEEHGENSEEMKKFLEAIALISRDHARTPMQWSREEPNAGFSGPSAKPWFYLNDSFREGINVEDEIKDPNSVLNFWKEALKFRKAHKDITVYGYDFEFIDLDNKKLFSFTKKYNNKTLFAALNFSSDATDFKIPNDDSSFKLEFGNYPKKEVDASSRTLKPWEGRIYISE
- assay_comment: Kinetic parameters for selected substrates
- Assay type: biochemical
- protocol_conditions: affinity constant for the substrate, mean ± SEM
Numbers only, in mM.

A selection of reference data follows.
molecule | value_units | reported
OC[C@H]1O[C@H](OC[C@H]2O[C@H](O[C@H]3[C@H](O)[C@@H](O)C(O)O[C@@H]3CO)[C@H](O)[C@@H](O)[C@@H]2O)[C@H](O)[C@@H](O)[C@@H]1O (stereo partly shown) [Panose] | mM | 82
OC[C@H]1O[C@H](OC[C@H]2OC(O)(CO)[C@@H](O)[C@@H]2O)[C@H](O)[C@@H](O)[C@@H]1O (stereo partly drawn) [Palatinose, O-α-D-Glucosyl-(1→6)-D-fructose] | mM | 18
COC1OC(CO)C(O)C(O)C1O (stereo not drawn) [α-MG, α-Methylglucopyranoside] | mM | 27

Consider the additional molecule presented here.
Inquiry: Reported Km for OC[C@H]1O[C@H](OC[C@H]2O[C@H](O)[C@H](O)[C@@H](O)[C@@H]2O)[C@H](O)[C@@H](O)[C@@H]1O [Isomaltose, O-α-D-Glucosyl-(1→6)-α-D-glucose] : what is it?
Reply text: 17

###

- experimental_system: Ima3pR279Q (Saccharomyces cerevisiae, UniProt P0CW40, R279Q)
- Sequence (P0CW40 whole entry R279Q): as the sequence (P0CW40 whole entry) above, with R279Q counted along it
- assay_comment: Substrate specificity of purified isomaltase variant
- Assay type: biochemical
- protocol_conditions: 100 mM substrate (pNPG 5 mM), citrate–potassium phosphate buffer, pH 7, 30 °C
Could you please report measured log10 Specific activities for the items listed next?
On a log10 scale: recorded Specific activities, unit µmol/min/mg.

compound | log10 Specific activities
OC[C@H]1O[C@H](O[C@@H]2COC(O)(CO)[C@@H](O)[C@@H]2O)[C@H](O)[C@@H](O)[C@@H]1O (stereo partly drawn) [Leucrose, O-α-D-Glucosyl-(1→5)-D-fructose] | 0.18

Can you give me log10 Specific activities for all of these, one by one?
1. OC[C@H]1O[C@@](CO)(O[C@H]2O[C@H](CO)[C@@H](O)[C@H](O)[C@H]2O)[C@@H](O)[C@@H]1O [Sucrose, O-α-D-Glucosyl-(1→2)-β-D-fructose]
2. OC[C@H]1O[C@H](OC[C@H]2O[C@H](O)[C@H](O)[C@@H](O)[C@@H]2O)[C@H](O)[C@@H](O)[C@@H]1O [Isomaltose, O-α-D-Glucosyl-(1→6)-α-D-glucose]
3. COC1OC(CO)C(O)C(O)C1O (stereo not drawn) [α-MG, α-Methylglucopyranoside]
4. O=[N+]([O-])c1ccc(O[C@H]2O[C@H](CO)[C@@H](O)[C@H](O)[C@H]2O)cc1 [α-pNPG, 4-Nitrophenyl α-D-glucopyranoside]
5. OC[C@H]1O[C@H](OC[C@H]2OC(O)(CO)[C@@H](O)[C@@H]2O)[C@H](O)[C@@H](O)[C@@H]1O (stereo partly drawn) [Palatinose, O-α-D-Glucosyl-(1→6)-D-fructose]
6. OC[C@H]1O[C@H](OC[C@H]2O[C@H](O[C@H]3[C@H](O)[C@@H](O)C(O)O[C@@H]3CO)[C@H](O)[C@@H](O)[C@@H]2O)[C@H](O)[C@@H](O)[C@@H]1O (stereo partly shown) [Panose]

Reply text:
1: 1.34; 2: 1.46; 3: 1.70; 4: 0.93; 5: 1.52; 6: 0.49

###

Could you please report measured Specific activities for the items listed next?
- experimental_system: Ima2p (Saccharomyces cerevisiae)
- Sequence (Q08295 whole entry): as the sequence (P0CW40 whole entry) above, with T54A, L240P, R279Q counted along it
- assay_comment: Substrate specificity of purified isomaltase
- Format: biochemical
- protocol_conditions: 100 mM substrate (pNPG 5 mM), citrate–potassium phosphate buffer, pH 7, 30 °C
Give bare numbers, in µmol/min/mg.

A selection of reference data follows.
compound | Specific activities, µmol/min/mg
O=C(CO)[C@@H](O[C@H]1O[C@H](CO)[C@@H](O)[C@H](O)[C@H]1O)[C@H](O)[C@H](O)CO [Turanose, O-α-D-Glucosyl-(1→3)-D-fructose] | 3.5
OC[C@H]1O[C@H](O[C@@H]2[C@@H](O)[C@H](O)[C@@H](CO)O[C@@H]2O)[C@H](O)[C@@H](O)[C@@H]1O [Kojibiose, O-α-D-Glucosyl-(1→2)-α-D-glucose] | 6.9
OC[C@H]1O[C@H](OC[C@H]2O[C@H](O[C@H]3[C@H](O)[C@@H](O)C(O)O[C@@H]3CO)[C@H](O)[C@@H](O)[C@@H]2O)[C@H](O)[C@@H](O)[C@@H]1O (some centres unmarked) [Panose] | 2.9
OC[C@H]1O[C@H](O[C@H]2O[C@H](CO)[C@@H](O)[C@H](O)[C@H]2O)[C@H](O)[C@@H](O)[C@@H]1O [Trehalose, O-α-D-Glucosyl-(1→1)-α-D-glucose] | 0

Consider the additional compound presented here.
Inquiry: Reported Specific activities for O=[N+]([O-])c1ccc(O[C@H]2O[C@H](CO)[C@@H](O)[C@H](O)[C@H]2O)cc1 [α-pNPG, 4-Nitrophenyl α-D-glucopyranoside] : what is it?
Reply text: 7.7
